Data credit: patent US20250213705A1

Below are Kd values recorded for UniProtKB Q04609.
Provide a numeric answer, followed by its unit.

CC(=O)NCCOCCOCCOCCC(=O)NC[C@H]1CC[C@H](C(=O)N[C@@H](Cc2ccc3ccccc3c2)C(=O)NCCCC[C@H](NC(=O)N[C@@H](CCCC(=O)O)C(=O)O)C(=O)O)CC1; 35.2 nM
CC(=O)NCCOCCOCCOCCC(=O)N[C@@H](Cc1cccc(C(=O)O)c1)C(=O)NCCC(=O)N[C@@H](Cc1ccc2ccccc2c1)C(=O)NCCCC[C@H](NC(=O)N[C@@H](CCC(=O)O)C(=O)O)C(=O)O; 1.73 nM
CC(=O)NCCOCCOCCOCCC(=O)N1C[C@H](NC(=O)COc2cc(C#N)cc(C#N)c2)C[C@H]1C(=O)NCC(=O)N[C@@H](Cc1ccc2ccccc2c1)C(=O)NCCCC[C@H](NC(=O)N[C@@H](CCC(=O)O)C(=O)O)C(=O)O; 2.58 nM

Lab note: next compound to report on.
GET /values?item= CC(=O)NCCOCCOCCOCCC(=O)N[C@@H](CCCOc1ccc(F)cc1F)C(=O)NC[C@H]1CC[C@H](C(=O)N[C@@H](Cc2ccc3ccccc3c2)C(=O)NCCCC[C@H](NC(=O)N[C@@H](CCC(=O)O)C(=O)O)C(=O)O)CC1 &system= UniProtKB Q04609 returns Kd: 1.62 nM

----------
# subject_of_test: Recombinant Human PSMA/FOLH1 Protein (Homo sapiens (Human), UniProt Q04609)
# Sequence (Q04609 whole entry): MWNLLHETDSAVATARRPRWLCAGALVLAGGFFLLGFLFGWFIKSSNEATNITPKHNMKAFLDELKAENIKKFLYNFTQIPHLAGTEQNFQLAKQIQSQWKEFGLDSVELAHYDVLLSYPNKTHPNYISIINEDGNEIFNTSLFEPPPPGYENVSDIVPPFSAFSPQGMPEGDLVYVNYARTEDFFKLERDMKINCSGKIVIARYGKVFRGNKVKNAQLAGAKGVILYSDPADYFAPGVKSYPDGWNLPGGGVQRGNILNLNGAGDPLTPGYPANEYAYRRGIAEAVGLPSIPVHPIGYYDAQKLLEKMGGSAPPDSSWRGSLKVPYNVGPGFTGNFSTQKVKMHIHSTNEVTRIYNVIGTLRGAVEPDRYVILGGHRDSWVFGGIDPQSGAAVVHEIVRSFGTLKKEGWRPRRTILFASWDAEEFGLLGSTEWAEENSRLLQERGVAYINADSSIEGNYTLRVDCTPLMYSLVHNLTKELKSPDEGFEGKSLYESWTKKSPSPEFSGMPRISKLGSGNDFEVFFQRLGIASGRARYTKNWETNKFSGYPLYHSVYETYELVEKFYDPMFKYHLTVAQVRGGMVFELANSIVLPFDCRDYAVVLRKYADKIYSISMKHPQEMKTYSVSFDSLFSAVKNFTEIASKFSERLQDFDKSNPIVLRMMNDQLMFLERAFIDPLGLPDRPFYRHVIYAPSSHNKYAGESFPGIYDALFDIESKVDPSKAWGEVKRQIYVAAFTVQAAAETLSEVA
# measurement_notes: Inhibition assay (Amplex Red glutamic acid/glutamate oxidase, NAAG substrate)
# condition_label: Target PSMA; average of N replicates; PSMA 5 nM, NAAG 40 μM
pIC50: −log10 of the molar value.
Tick TRUE if pIC50 is 6 or greater. Tick FALSE if pIC50 is less than 6.

CC(=O)NCCOCCOCCOCCC(=O)N[C@@H](Cc1cccc(C(=O)O)c1)C(=O)NCCC(=O)N[C@@H](Cc1ccc2ccccc2c1)C(=O)NCCCC[C@H](NC(=O)N[C@@H](CCC(=O)O)C(=O)O)C(=O)O; TRUE
CC(=O)NCCOCCOCCOCCC(=O)N1C[C@H](NC(=O)COc2cc(C#N)cc(C#N)c2)C[C@H]1C(=O)N[C@@H](Cc1ccc2ccccc2c1)C(=O)NCCCC[C@H](NC(=O)N[C@@H](CCC(=O)O)C(=O)O)C(=O)O; TRUE
CC(=O)NCCOCCOCCOCCC(=O)NC[C@H]1CC[C@H](C(=O)N[C@H](CC(=O)NCCCC[C@H](NC(=O)N[C@@H](CCC(=O)O)C(=O)O)C(=O)O)Cc2ccccc2)CC1; TRUE
CSCC[C@H](NC(=O)N[C@@H](CCCCNC(=O)[C@H](Cc1ccc2ccccc2c1)NC(=O)[C@H]1CC[C@H](CNC(=O)CCOCCOCCOCCNC(C)=O)CC1)C(=O)O)C(=O)O; FALSE

Now examine the next entry.
Record CC(=O)NCCOCCOCCOCCC(=O)NC[C@H]1CC[C@H](C(=O)N[C@@H](Cc2c[nH]c3ncccc23)C(=O)NCCCC[C@H](NC(=O)N[C@@H](CCC(=O)O)C(=O)O)C(=O)O)CC1 ; criterion: pIC50 no lower than 6. Met? TRUE

----------
Form field: Kon (one value per entry).
# subject_of_test: human FOLH1 (Homo sapiens (Human))
# measurement_notes: SPR analysis of binding kinetics to biotinylated FOLH1 (Biacore 8K)
# condition_label: ligand PSMA, association rate

Before answering, review these 3 worked examples.
CC(=O)NCCOCCOCCOCCC(=O)N1C[C@H](NC(=O)CCCOc2cc(C#N)cc(C#N)c2)C[C@H]1C(=O)N[C@@H](Cc1ccc2ccccc2c1)C(=O)NCCCC[C@H](NC(=O)N[C@@H](CCC(=O)O)C(=O)O)C(=O)O; 243000 1.ms
CC(=O)NCCOCCOCCOCCC(=O)NC[C@H]1CC[C@H](C(=O)N[C@@H](Cc2c[nH]c3ccccc23)C(=O)NCCCC[C@H](NC(=O)N[C@@H](CCC(=O)O)C(=O)O)C(=O)O)CC1 (stereo in doubt); 158000 1.ms
CC(=O)NCCOCCOCCOCCC(=O)N1C[C@H](NC(=O)CCCOc2cc(C#N)cc(C#N)c2)C[C@H]1C(=O)NCC(=O)N[C@@H](Cc1ccc2ccccc2c1)C(=O)NCCCC[C@H](NC(=O)N[C@@H](CCC(=O)O)C(=O)O)C(=O)O; 71500 1.ms

Kon reading for CC(=O)NCCOCCOCCOCCC(=O)N1C[C@H](NC(=O)COc2cc(C#N)cc(C#N)c2)C[C@H]1C(=O)N[C@@H](Cc1ccc2ccccc2c1)C(=O)NCCCC[C@H](NC(=O)N[C@@H](CCC(=O)O)C(=O)O)C(=O)O : 137000 1.ms

----------
molecules and their reported Kon
# subject_of_test: human FOLH1 (Homo sapiens (Human))
# measurement_notes: SPR analysis of binding kinetics to biotinylated FOLH1 (Biacore 8K)
# condition_label: ligand PSMA, association rate

CC(=O)NCCOCCOCCOCCC(=O)N[C@@H]1C[C@@H](C(=O)N[C@@H](Cc2ccc3ccccc3c2)C(=O)NCCCC[C@H](NC(=O)N[C@@H](CCC(=O)O)C(=O)O)C(=O)O)N(C(=O)COc2cc(C#N)cc(C#N)c2)C1 [Compound 81]; 90000 1.ms
CC(=O)NCCOCCOCCOCCC(=O)N(CCCOc1cc(C(F)(F)F)cc(C(F)(F)F)c1)CC(=O)N[C@@H](Cc1ccc2ccccc2c1)C(=O)NCCCC[C@H](NC(=O)N[C@@H](CCC(=O)O)C(=O)O)C(=O)O [Compound 86]; 339000 1.ms
C=CC[C@H](NC(=O)CCOCCOCCOCCNC(C)=O)C(=O)NC[C@H]1CC[C@H](C(=O)N[C@@H](Cc2ccc3ccccc3c2)C(=O)NCCCC[C@H](NC(=O)N[C@@H](CCC(=O)O)C(=O)O)C(=O)O)CC1 [Compound 41]; 102000 1.ms
CC(=O)NCCOCCOCCOCCC(=O)N(CCCOc1ccc(F)cc1F)CC(=O)NC[C@H]1CC[C@H](C(=O)N[C@@H](Cc2ccc3ccccc3c2)C(=O)NCCCC[C@H](NC(=O)N[C@@H](CCC(=O)O)C(=O)O)C(=O)O)CC1 [Compound 39]; 223000 1.ms
CC(=O)NCCOCCOCCOCCC(=O)NC[C@H]1CC[C@H](C(=O)N[C@@H](Cc2ccc(C(=O)O)cc2)C(=O)NCCCC[C@H](NC(=O)N[C@@H](CCC(=O)O)C(=O)O)C(=O)O)CC1 [Compound 21]; 183000 1.ms

Kindly review the next molecule as well.
Consider CC(=O)NCCOCCOCCOCCC(=O)N[C@@H]1C[C@@H](C(=O)NCC(=O)N[C@@H](Cc2ccc3ccccc3c2)C(=O)NCCCC[C@H](NC(=O)N[C@@H](CCC(=O)O)C(=O)O)C(=O)O)N(C(=O)CCCOc2cc(C#N)cc(C#N)c2)C1 [Compound 92] . Its measured Kon is 297000 1.ms

----------
Measured Kd accompanies every entry in the list below.
# subject_of_test: human FOLH1 (Homo sapiens (Human), UniProt Q04609)
# Sequence (Q04609 whole entry): as above
Report only the number, with the unit nM understood.

CC(=O)NCCOCCOCCOCCC(=O)N[C@@H](CCCOc1cc(C#N)cc(C#N)c1)C(=O)NCC(=O)N[C@@H](Cc1ccc2ccccc2c1)C(=O)NCCCC[C@H](NC(=O)N[C@@H](CCC(=O)O)C(=O)O)C(=O)O; 1.12

Consider the additional compound presented here.
The reported Kd of the compound CC(=O)NCCOCCOCCOCCC(=O)NC[C@H]1CC[C@H](C(=O)N[C@@H](Cc2c[nH]c3ccccc23)C(=O)NCCCC[C@H](NC(=O)N[C@@H](CCC(=O)O)C(=O)O)C(=O)O)CC1 (stereo in doubt) was 0.208

----------
# subject_of_test: Recombinant Human PSMA/FOLH1 Protein (Homo sapiens (Human), UniProt Q04609)
# measurement_notes: Inhibition assay (Amplex Red glutamic acid/glutamate oxidase, NAAG substrate)
# condition_label: Target PSMA; average of N replicates; PSMA 5 nM, NAAG 40 μM
# Procedure: Amplex™ Red Glutamic Acid/Glutamate Oxidase Assay Kit Catalog number: A12221 (Thermofisher); Recombinant Human PSMA/FOLH1 Protein, CF (rnd systems); N-Acetyl-Asp-Glu (NAAG) (Sigma Aldrich; 96 well half area plate; Enspire plate reader. […] Pipette 20 μl/well of the working solution prepared above. […] Because the assay is continuous (not terminated), fluorescence may be measured at multiple time points to follow the kinetics of the reactions. […] Ec50s were determined with GraphPad Prism. […]
Recorded IC50 values for a group of molecules are listed next.
Answer with the value and then the unit.

CC(=O)NCCOCCOCCOCCC(=O)N[C@@H](Cc1ccc(C(=O)O)cc1)C(=O)NCCC(=O)N[C@@H](Cc1ccc2ccccc2c1)C(=O)NCCCC[C@H](NC(=O)N[C@@H](CCC(=O)O)C(=O)O)C(=O)O; 11.5 nM
CC(=O)NCCOCCOCCOCCC(=O)NC[C@H]1CC[C@H](C(=O)N[C@@H](Cc2ccc(C(=O)O)cc2)C(=O)NCCCC[C@H](NC(=O)N[C@@H](CCC(=O)O)C(=O)O)C(=O)O)CC1; 201 nM
CC(=O)NCCOCCOCCOCCC(=O)N[C@@H]1C[C@@H](C(=O)N[C@@H](Cc2ccc3ccccc3c2)C(=O)NCCCC[C@H](NC(=O)N[C@@H](CCC(=O)O)C(=O)O)C(=O)O)N(C(=O)CCCOc2cc(C#N)cc(C#N)c2)C1 (stereo in doubt); 1.8 nM
CC(=O)NCCOCCOCCOCCC(=O)NC[C@H]1CC[C@H](C(=O)N[C@@H](C)C(=O)NCCCC[C@H](NC(=O)N[C@@H](CCC(=O)O)C(=O)O)C(=O)O)CC1; 537 nM
CC(=O)NCCOCCOCCOCCC(=O)NC[C@H]1CC[C@H](C(=O)N[C@@H](Cc2ccc3ccccc3c2)C(=O)NCCCC(=O)N[C@@H](CNC(=O)N[C@@H](CCC(=O)O)C(=O)O)C(=O)O)CC1; 583000 nM

I looked up CC(=O)NCCOCCOCCOCCC(=O)N[C@@H](CCCOc1cc(C#N)cc(C#N)c1)C(=O)N[C@@H](Cc1ccc2ccccc2c1)C(=O)NCCCC[C@H](NC(=O)N[C@@H](CCC(=O)O)C(=O)O)C(=O)O and its IC50 for Recombinant Human PSMA/FOLH1 Protein (Homo sapiens (Human), UniProt Q04609) was 1710 nM

// molecule CC(=O)NCCOCCOCCOCCC(=O)NC[C@H]1CC[C@H](C(=O)N[C@@H](Cc2c[nH]c3ccc(F)cc23)C(=O)NCCCC[C@H](NC(=O)N[C@@H](CCC(=O)O)C(=O)O)C(=O)O)CC1 , assay Recombinant Human PSMA/FOLH1 Protein (Homo sapiens (Human), UniProt Q04609), IC50 value: 41.5 nM
